molecular target: T1, Tim3-ECD-His-Biotin (human, UniProt Q8TDQ0 22-202, biotinylated with BirA Ligase); assay: ELISA on human Tim3
T1 construct: Coated on streptavidin plates; also called human Tim3 (ELISA); Biochem Human
REPORTED_ENDPOINT: Inflexion point (ng/mL)

# BINDER, REPORTED_ENDPOINT, RECORDED_MEASUREMENT
rows = [
    ("Tim3_0016MutNS (antibody, V domains shown, also called Tim3_0016 with HVR-L1 variant 2_NS) VH: QVTLKESGPGILQPSQTLRLTCSFSGFSLSTSGMSVGWIRQPSGKGLEWLAHIWLNDDVFFNPALKSRLTISKDTSNNQVFLQIASVVTADTATYYCVRANGYLYALDYWGQGTSVTVSS VL: QIVLTQSPAIMSASPGQKVTITCSASSSVSYTQWYQQKLGSSPKLWIYDAFKLAPGVPARFSGSGTGTSYSLTISSMEAEDAASYFCHQWSSYPWTFGGGTKLEIK", "Inflexion point", 5.5),
    ("Tim3_0016MutNQ (antibody, V domains shown, also called Tim3_0016 with HVR-L1 variant 1_NQ) VH: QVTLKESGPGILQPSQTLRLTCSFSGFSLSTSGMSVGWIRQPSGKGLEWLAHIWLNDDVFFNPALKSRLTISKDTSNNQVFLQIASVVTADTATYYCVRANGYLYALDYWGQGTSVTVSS VL: QIVLTQSPAIMSASPGQKVTITCSASSSVQYTQWYQQKLGSSPKLWIYDAFKLAPGVPARFSGSGTGTSYSLTISSMEAEDAASYFCHQWSSYPWTFGGGTKLEIK", "Inflexion point", 5.7),
    ("Tim3_0018MutNS (antibody, V domains shown, also called Tim3_0016 variant (0018) with HVR-L1 variant 2_NS) VH: QVTLKESGPGILQPSQTLSLTCSFSGFSLSTSGMSVGWIRQPSGKGLEWLAHIWLNDDVFFNPALKRRLTISKDTSNNQVFLQIASVVTADTATYYCVRANGYLYALDYWGQGISVTVSS VL: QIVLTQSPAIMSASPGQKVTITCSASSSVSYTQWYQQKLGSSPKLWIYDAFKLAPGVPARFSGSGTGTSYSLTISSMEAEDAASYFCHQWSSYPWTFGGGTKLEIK", "Inflexion point", 6.5),
    ("Tim3_0018MutNQ (antibody, V domains shown, made in HEK293; also called Tim3_0016 variant (0018) with HVR-L1 variant 1_NQ) VH: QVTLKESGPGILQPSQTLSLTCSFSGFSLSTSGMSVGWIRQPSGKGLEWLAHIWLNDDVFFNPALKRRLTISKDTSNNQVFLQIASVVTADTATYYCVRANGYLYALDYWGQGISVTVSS VL: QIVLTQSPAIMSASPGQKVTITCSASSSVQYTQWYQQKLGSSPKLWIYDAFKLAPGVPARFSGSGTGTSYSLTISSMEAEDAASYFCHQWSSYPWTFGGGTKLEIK", "Inflexion point", 10.8),
    ("anti-TIM3 antibody Tim3_0016 variant (Tim3_0018) (antibody, V domains shown, Mouse monoclonal from hybridoma; also called TIM3-0016 variant (0018); Tim3_0016 variant 0018-A488) VH: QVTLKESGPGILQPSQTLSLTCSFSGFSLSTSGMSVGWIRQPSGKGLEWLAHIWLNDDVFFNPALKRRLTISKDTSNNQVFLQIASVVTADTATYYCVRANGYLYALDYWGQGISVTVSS VL: QIVLTQSPAIMSASPGQKVTITCSASSSVNYTQWYQQKLGSSPKLWIYDAFKLAPGVPARFSGSGTGTSYSLTISSMEAEDAASYFCHQWSSYPWTFGGGTKLEIK", "Inflexion point", 15.3),
]
